Target: β5 subunit of the human constitutive proteasome (CPS) (Homo sapiens, UniProt P28074)
Assay: β5 inhibition assay, human constitutive proteasome (Suc-LLVY-AMC)
Conditions: IC50 class, Suc-LLVY-AMC substrate
Listed below: IC50 values for each entry.

>  <COMPOUND>
CC(=O)N[C@H]1CC(=O)N2CCOC(CCOc3ccc(C)c(c3)CNC(=O)[C@H](CCc3ccccc3)NC1=O)C2 (stereo partly drawn)

>  <IC50>
100 to 500 nM

$$$$
>  <COMPOUND>
Cc1ccc2cc1CNC(=O)[C@H](CCc1ccccc1)NC(=O)[C@@H](NC(=O)C13CC(O)(C1)C3)CC(=O)N1CCCC(CCO2)C1 (stereo partly drawn)

>  <IC50>
< 100 nM

$$$$
>  <COMPOUND>
Cc1ccc2cc1CNC(=O)[C@H](CCc1ccccc1)NC(=O)[C@@H](NC(=O)CCc1ccc3[nH]ccc3c1)CC(=O)N1CCCC(CCO2)C1 (stereo partly drawn)

>  <IC50>
< 100 nM

$$$$
>  <COMPOUND>
Cc1ccc2cc1CNC(=O)[C@H](CCc1ccccc1)NC(=O)[C@@H](NC(=O)CCN1CC3(CCC3)C1)CC(=O)N1CCCC(CCO2)C1 (stereo partly drawn)

>  <IC50>
< 100 nM

$$$$
>  <COMPOUND>
Cc1ccc2cc1CNC(=O)[C@@H](CCc1ccccc1)NC(=O)[C@@H](NC(=O)OCc1ccccc1)CC(=O)N1CCC[C@H](CCO2)C1

>  <IC50>
100 to 500 nM

$$$$

Turning to the following compound.
Input line: Bench note: what IC50 did CCC(CC)(CO)C(=O)N[C@H]1CC(=O)N2CCCC(CCOc3ccc(C)c(c3)CNC(=O)[C@H](CCc3ccccc3)NC1=O)C2 (stereo partly drawn) show?
Output line: < 100 nM

====

Tested on: B-cells isolated from PBMC's
Test: Chymotrypsin-like ProteasomeGlo assay in B-cells isolated from PBMCs
Type: cell-based, human
Settings: Homo sapiens, read-out: Pglo B-Cell [nM]
Listed below: IC50 values for each entry.

>  <MOLECULE>
Cc1ccc2cc1CNC(=O)[C@H](CCc1ccccc1)NC(=O)[C@@H](Nc1ncccn1)CC(=O)N1CCCC(CCO2)C1 (some centres unmarked) [Compound 34]

>  <TESTED ON>
B-cells isolated from PBMC's

>  <VALUE>
< 100 nM

$$$$

Turning to the following molecule.
Input line: Bench note: what IC50 did CCOC(=O)N[C@H]1CC(=O)N2CCCC(CCOc3ccc(C)c(c3)CNC(=O)[C@H](CCc3ccccc3)NC1=O)C2 (some centres unmarked) [Compound 39] show?
Output line: < 100 nM

====

Tested on: HT-29 cells
Experiment: CellTiter-Glo luminescent cell viability assay with HT-29 cells (72h incubation)
Type: cell-based, human
Conditions: Homo sapiens, HT-29, HT29 cells, read-out: CTG HT29
VALUE TYPE: IC50

As a guide, the following entries are already answered.
>  <COMPOUND>
Cc1cc2cc(c1C)CNC(=O)C(c1cnn(C)c1)NC(=O)CCC(=O)N1CCCC(CCO2)C1 (stereo not drawn)

>  <VALUE TYPE>
IC50

>  <VALUE>
1000 to 5000 nM

$$$$
>  <COMPOUND>
Cc1ccc2cc1CNC(=O)[C@H](CCc1ccccc1)NC(=O)[C@@H](NC(=O)OCc1ccccc1)CCCC(=O)N1CCCC3(CC(C3)O2)C1

>  <VALUE TYPE>
IC50

>  <VALUE>
100 to 500 nM

$$$$

Turning to the following compound.
Input line: Bench note: what IC50 did `Cc1ccc2cc1CNC(=O)[C@H](CCc1ccccc1)NC(=O)[C@@H](NC(=O)OCc1ccccc1)CC(=O)N1CCC[C@H](CCO2)C1` show?
Output line: < 100 nM

====

Target: β5 subunit of the human constitutive proteasome (CPS) (Homo sapiens)
Assay: β5 inhibition assay, human constitutive proteasome (Suc-LLVY-AMC)
Conditions: IC50 class, Suc-LLVY-AMC substrate
Listed below: IC50 values for each entry.

>  <COMPOUND>
Cc1ccc2cc1CNC(=O)[C@H](CCc1ccccc1)NC(=O)[C@@H](NC(=O)Cc1ccccc1)CCNC(=O)N1CCCC(CCO2)C1 (stereo partly shown) [Compound 653]

>  <TESTED ON>
β5 subunit of the human constitutive proteasome (CPS) (Homo sapiens)

>  <IC50>
< 100 nM

$$$$
>  <COMPOUND>
COC(C(=O)N[C@H]1CC(=O)N2CCCC(CCOc3ccc(C)c(c3)CNC(=O)[C@H](CCc3ccccc3)NC1=O)C2)c1ccc(NC(C)=O)cc1 (stereo partly shown) [Compound 323]

>  <TESTED ON>
β5 subunit of the human constitutive proteasome (CPS) (Homo sapiens)

>  <IC50>
< 100 nM

$$$$
>  <COMPOUND>
Cc1ccc2cc1CNC(=O)[C@H](CCc1ccccc1)NC(=O)[C@@H](NC(=O)CCc1ccccc1-c1ccccc1)CC(=O)N1CCCC(CCO2)C1 (stereo partly shown) [Compound 177]

>  <TESTED ON>
β5 subunit of the human constitutive proteasome (CPS) (Homo sapiens)

>  <IC50>
< 100 nM

$$$$
>  <COMPOUND>
COCCOCCC(=O)N[C@H]1CC(=O)N2CCCC(CCOc3ccc(C)c(c3)CNC(=O)[C@H](CCc3ccccc3)NC1=O)C2 (stereo partly shown) [Compound 596]

>  <TESTED ON>
β5 subunit of the human constitutive proteasome (CPS) (Homo sapiens)

>  <IC50>
< 100 nM

$$$$
>  <COMPOUND>
Cc1ccc2cc1CNC(=O)[C@H](CCc1ccccc1)NC(=O)[C@@H](NC(=O)CCc1ccc(Br)cc1)CC(=O)N1CCCC(CCO2)C1 (stereo partly shown) [Compound 175]

>  <TESTED ON>
β5 subunit of the human constitutive proteasome (CPS) (Homo sapiens)

>  <IC50>
< 100 nM

$$$$

Input line: Bench note: what IC50 did Cc1cc(CC(=O)N[C@H]2CC(=O)N3CCCC(CCOc4ccc(C)c(c4)CNC(=O)[C@H](CCc4ccccc4)NC2=O)C3)ccc1N (stereo partly shown) [Compound 303] show?
Output line: < 100 nM

Input line: CC(=O)N[C@H]1CC(=O)N2CCCC(CCOc3ccc(C)c(c3)CNC(=O)C(c3cn[nH]c3)NC1=O)C2 (stereo partly shown) [Compound 562] , same question.
Output line: < 100 nM

====

Test system: hPMBC
Test: Chymotrypsin-like ProteasomeGlo assay in hPBMC
Format: cell-based
Conditions: Homo sapiens; read-out: Pglo hPBMC
pIC50: −log10 of the molar value.
VALUE TYPE: pIC50

As a guide, the following entries are already answered.
>  <COMPOUND>
CC(=O)N[C@H]1CC(=O)N2CCCC(C2)Oc2ccc(C)c(c2)CNC(=O)[C@H](CCc2ccccc2)NC1=O (stereo partly shown) [Compound 255]

>  <pIC50>
< 5.30

$$$$
>  <COMPOUND>
CC(=O)N[C@H]1CCCC(=O)N2CCCC(CCOc3ccc(C)c(c3)CNC(=O)[C@H](CCc3ccccc3)NC1=O)C2 (stereo partly shown) [Compound 213]

>  <pIC50>
> 7.00

$$$$
>  <COMPOUND>
Cc1ccc2cc1CNC(=O)[C@H](CCc1ccccc1)NC(=O)[C@@H](NC(=O)Cc1csc(N)n1)CC(=O)N1CCCC(CCO2)C1 (stereo partly shown) [Compound 302]

>  <pIC50>
> 7.00

$$$$
>  <COMPOUND>
Cc1ccc2cc1CNC(=O)[C@H](Cc1c[nH]c3ccccc13)NC(=O)CCC(=O)N1CCCC(CCO2)C1 (stereo partly shown) [Compound 77]

>  <pIC50>
6.30 to 7.00

$$$$

Input line: What measured pIC50 is associated with Cc1ccc2cc1CNC(=O)[C@H](CCc1ccccc1)NC(=O)[C@@H](NC(=O)OCc1ccccc1)CCCC(=O)N1CCCC3(CC(C3)O2)C1 [Compound 283] on hPMBC?
Output line: 6.00 to 6.30

====

Listed below: pIC50 values for each entry.
Target: β5 subunit of the human constitutive proteasome (CPS) (Homo sapiens, UniProt P28074)
Test: β5 inhibition assay, human constitutive proteasome (Suc-LLVY-AMC)
Settings: IC50 class, Suc-LLVY-AMC substrate
pIC50: −log10 of the molar value.

>  <COMPOUND>
Cc1ccc2cc1CNC(=O)[C@H](CCc1ccccc1)NC(=O)[C@@H](NC(=O)C1(C)COC1)CC(=O)N1CCCC(CCO2)C1 (stereo partly drawn)

>  <pIC50>
> 7.00

$$$$
>  <COMPOUND>
COc1ccccc1CC(=O)N[C@H]1CC(=O)N2CCCC(CCOc3ccc(C)c(c3)CNC(=O)[C@H](CCc3ccccc3)NC1=O)C2 (stereo partly drawn)

>  <pIC50>
> 7.00

$$$$
>  <COMPOUND>
Cc1ccc2cc1CNC(=O)[C@H](CCC(C)C)NC(=O)[C@@H](NC(=O)Cc1cn3ccsc3n1)CC(=O)N1CCCC(CCO2)C1 (stereo partly drawn)

>  <pIC50>
> 7.00

$$$$
>  <COMPOUND>
COc1cccc(OCCC(=O)N[C@H]2CC(=O)N3CCCC(CCOc4ccc(C)c(c4)CNC(=O)[C@H](CCc4ccccc4)NC2=O)C3)c1 (stereo partly drawn)

>  <pIC50>
> 7.00

$$$$
>  <COMPOUND>
Cc1ccc2cc1CNC(=O)[C@H](CCc1ccccc1)NC(=O)[C@@H](NS(=O)(=O)Cc1ccccc1)CC(=O)N1CCCC(CCO2)C1 (stereo partly drawn)

>  <pIC50>
> 7.00

$$$$

Turning to the following compound.
Input line: Bench note: what pIC50 did Cc1ccc2cc1CNC(=O)C(CCc1cnc3nccnc3c1)NC(=O)[C@@H](NC(=O)OCc1ccccc1)CC(=O)N1CCCC(CCO2)C1 (stereo partly drawn) show?
Output line: > 7.00
